Assay: Lipophilicity, log D of compound at pH 7.4 by gradient HPLC analysis
Assay type: physicochemical
Conditions: buffer
Would you mind classing the entries by logD? Ranges: lower segment: < 3; middle segment: ≥ 3 and < 4; upper segment: ≥ 4

1. O=S(=O)(c1ccc(F)cc1)N1CCc2[nH]c3ccccc3c2CC1 | upper segment
2. O=C1CCN(S(=O)(=O)c2ccc(F)cc2)CC(=O)c2ccccc2N1 | lower segment
3. O=S(=O)(c1cccnc1)N1CCc2[nH]c3ccccc3c2C1 | middle segment
4. O=C(c1ccc(F)cc1)N1CCc2[nH]c3ccccc3c2C1 | middle segment
5. O=S(=O)(C1CCOCC1)N1CCc2[nH]c3ccccc3c2C1 | lower segment
6. O=S(=O)(c1ccc(Cl)cc1)N1CCc2[nH]c3ccccc3c2C1 | upper segment
7. O=S(=O)(c1ccc(C(F)(F)F)cc1)N1CCc2[nH]c3ccccc3c2C1 | upper segment
8. O=S(=O)(c1cnc[nH]1)N1CCc2[nH]c3ccccc3c2C1 | lower segment
